Just for reference, the supplement of paper PMC6897291 is where these values come from.

Test system: RIVA
Experiment: growth inhibition by drug alone (1 - RLU/untreated control) (fraction); higher = stronger inhibition
Conditions: 100 nM; time (day): 5; 177Lu-lilotomab satetraxetan 0 ug/ml
Measured growth inhibition by drug alone values are reported for all entries that follow.
Answer with a number only.

1. CCN(CC)CCCC(C)Nc1nc(C)cc(Nc2ccc3nc(C)cc(N)c3c2)n1 (centres undefined)    -0.249

Exercise: State the recorded growth inhibition by drug alone for this entry: O=C1[C@H](CC[C@H](O)c2ccc(F)cc2)[C@@H](c2ccc(O)cc2)N1c1ccc(F)cc1 [Ezetimibe (Zetia)]
Solution: -0.0985

Exercise: State the recorded growth inhibition by drug alone for this entry: `CN1CCN(c2ccc3nc(-c4c(N)c5c(F)cccc5[nH]c4=O)[nH]c3c2)CC1`
Solution: -0.188

Exercise: State the recorded growth inhibition by drug alone for this entry: `Cc1cn(-c2cc(NC(=O)c3ccc(C)c(Nc4nccc(-c5cccnc5)n4)c3)cc(C(F)(F)F)c2)cn1`
Solution: -0.0918

====

System: RIVA
Experiment: growth inhibition by drug plus 177Lu-lilotomab satetraxetan (1 - RLU/untreated control) (fraction); higher = stronger inhibition
Conditions: 10 nM; time (day): 3; 177Lu-lilotomab satetraxetan 0.5 ug/ml
quantity-kind: growth inhibition by drug plus 177Lu-lilotomab satetraxetan

// solved cases for growth inhibition by drug plus 177Lu-lilotomab satetraxetan follow
1. COc1cccc2c1C(=O)c1c(O)c3c(c(O)c1C2=O)C[C@@](O)(C(=O)CO)C[C@@H]3O[C@H]1C[C@H](N)[C@H](O)[C@H](C)O1 [Doxorubicin (Adriamycin)]    0.831
2. CN(C)Cc1ccc(-c2nc3cccc4c3n2CCNC4=O)cc1    0.564
3. CCN(CC)C(=S)SSC(=S)N(CC)CC [Disulfiram (Antabuse)]    0.402
4. O=C(O[C@@H]1Cc2c(O)cc(O)cc2O[C@@H]1c1cc(O)c(O)c(O)c1)c1cc(O)c(O)c(O)c1 [(-)-Epigallocatechin gallate]    0.452
5. Cc1ccc([N+](=O)[O-])cc1S(=O)(=O)N(C)/N=C/c1cnc2ccc(Br)cn12    0.675
6. C[C@@H]1CN(CC(=O)Nc2ccc3c(c2)Cc2cccc(-c4cc(=O)cc(N5CCOCC5)o4)c2S3)C[C@H](C)O1    0.275
7. CC(C)n1nc(-c2ccc3oc(N)nc3c2)c2c(N)ncnc21    0.595
8. Cc1nn(-c2ccccc2)c(C)c1C=NN1CCN(Cc2ccccc2)CC1    0.275

Okay, next one:
Exercise: State the recorded growth inhibition by drug plus 177Lu-lilotomab satetraxetan for this entry: COc1c(C)c2c(c(O)c1C/C=C(\C)CCC(=O)O)C(=O)OC2 [Mycophenolic (Mycophenolate)]
Solution: 0.534

====

Test system: RIVA
Test: growth inhibition by drug plus 177Lu-lilotomab satetraxetan (1 - RLU/untreated control) (fraction); higher = stronger inhibition
Details: 10 nM; time (day): 3; 177Lu-lilotomab satetraxetan 0.5 ug/ml
Counter-ions that a name gives are not always drawn.
quantity-kind: growth inhibition by drug plus 177Lu-lilotomab satetraxetan
Answer with a number only.

1) COC1=CC(c2cc3ccccc3[nH]2)=N/C1=C\c1[nH]c(C)cc1C [Obatoclax mesylate (GX15-070)]    0.479

Exercise: State the recorded growth inhibition by drug plus 177Lu-lilotomab satetraxetan for this entry: COc1ccccc1OCC(O)CN1CCN(CC(=O)Nc2c(C)cccc2C)CC1 (configuration not stated) [Ranolazine (Ranexa)]
Solution: 0.412

Exercise: State the recorded growth inhibition by drug plus 177Lu-lilotomab satetraxetan for this entry: `CCN(CC)CCCCNc1ncc2cc(-c3cc(OC)cc(OC)c3)c(NC(=O)NC(C)(C)C)nc2n1`
Solution: 0.539

====

Tested on: RIVA
Experiment: growth inhibition by drug alone (1 - RLU/untreated control) (fraction); higher = stronger inhibition
Details: 10 nM; time (day): 6; 177Lu-lilotomab satetraxetan 0 ug/ml
Counter-ions that a name gives are not always drawn.
Measured growth inhibition by drug alone values are reported for all entries that follow.
Answer with a number only.

1. Cc1cn(-c2cc(NC(=O)c3ccc(C)c(Nc4nccc(-c5cccnc5)n4)c3)cc(C(F)(F)F)c2)cn1    -0.318
2. NC(=O)Nc1sc(-c2ccc(F)cc2)cc1C(N)=O    -0.781
3. COc1cc(Nc2ncc(F)c(Nc3ccc4c(n3)NC(=O)C(C)(C)O4)n2)cc(OC)c1OC [R406(free base)]    -0.0464
4. CC(=O)Nc1cccc(-n2c(=O)n(C3CC3)c(=O)c3c(Nc4ccc(I)cc4F)n(C)c(=O)c(C)c32)c1    -0.235
5. O=C1c2c(O)ccc(O)c2C(=O)c2c(NCCNCCO)ccc(NCCNCCO)c21 [Mitoxantrone Hydrochloride]    0.759
6. Cc1ccc(NC(=O)c2cccc(C(C)(C)C#N)c2)cc1Nc1ccc2ncn(C)c(=O)c2c1    -0.0473

Okay, next one:
Exercise: State the recorded growth inhibition by drug alone for this entry: `CC[C@]1(O)C[C@@H]2CN(CCc3c([nH]c4ccccc34)[C@@](C(=O)OC)(c3cc4c(cc3OC)N(C)[C@H]3[C@@](O)(C(=O)OC)[C@H](OC(C)=O)[C@]5(CC)C=CCN6CC[C@]43[C@@H]65)C2)C1`
Solution: -0.193

====

Tested on: RIVA
Test: growth inhibition by drug plus 177Lu-lilotomab satetraxetan (1 - RLU/untreated control) (fraction); higher = stronger inhibition
Conditions: 100 nM; time (day): 3; 177Lu-lilotomab satetraxetan 0.5 ug/ml
Counter-ions that a name gives are not always drawn.
quantity-kind: growth inhibition by drug plus 177Lu-lilotomab satetraxetan
Answer with a number only.

Exercise: State the recorded growth inhibition by drug plus 177Lu-lilotomab satetraxetan for this entry: `COc1cc2nccc(Oc3ccc(NC(=O)Nc4cc(C)on4)c(Cl)c3)c2cc1OC`
Solution: 0.438

Exercise: State the recorded growth inhibition by drug plus 177Lu-lilotomab satetraxetan for this entry: `Cc1[nH]c(/C=C2\C(=O)Nc3ccc(S(=O)(=O)Cc4c(Cl)cccc4Cl)cc32)c(C)c1C(=O)N1CCC[C@@H]1CN1CCCC1`
Solution: 0.246

Exercise: State the recorded growth inhibition by drug plus 177Lu-lilotomab satetraxetan for this entry: CN1CCC(CNc2ccc3ncc(-c4cccc(OC(F)(F)F)c4)n3n2)CC1 [SGI-1776 free base]
Solution: 0.302

Exercise: State the recorded growth inhibition by drug plus 177Lu-lilotomab satetraxetan for this entry: `c1ccc2c(-c3cnn4cc(-c5ccc(N6CCNCC6)cc5)cnc34)ccnc2c1`
Solution: 0.307

Exercise: State the recorded growth inhibition by drug plus 177Lu-lilotomab satetraxetan for this entry: CN1C(=O)C(Cc2c[nH]c3ccccc23)NC1=S (stereo not drawn)
Solution: 0.368

Exercise: State the recorded growth inhibition by drug plus 177Lu-lilotomab satetraxetan for this entry: `Cn1cnc(N)c2ncnc1-2`
Solution: 0.517

Exercise: State the recorded growth inhibition by drug plus 177Lu-lilotomab satetraxetan for this entry: `COc1c(C)cnc(Cn2cnc3c(Cl)nc(N)nc32)c1C`
Solution: 0.471

Exercise: State the recorded growth inhibition by drug plus 177Lu-lilotomab satetraxetan for this entry: `Cc1ccc(C(=O)N(CCCN)[C@@H](c2oc3cc(Cl)ccc3c(=O)c2Cc2ccccc2)C(C)C)cc1`
Solution: 0.953

Exercise: State the recorded growth inhibition by drug plus 177Lu-lilotomab satetraxetan for this entry: `CCNC(=O)c1noc(-c2cc(C(C)C)c(O)cc2O)c1-c1ccc(CN2CCOCC2)cc1`
Solution: 0.982

Exercise: State the recorded growth inhibition by drug plus 177Lu-lilotomab satetraxetan for this entry: CN1CC[C@H](c2c(O)cc(O)c3c(=O)cc(-c4ccccc4Cl)oc23)[C@H](O)C1 [Flavopiridol hydrochloride]
Solution: 0.615

Exercise: State the recorded growth inhibition by drug plus 177Lu-lilotomab satetraxetan for this entry: `C=CC[C@@H]1/C=C(\C)C[C@H](C)C[C@H](OC)[C@H]2O[C@@](O)(C(=O)C(=O)N3CCCC[C@H]3C(=O)O[C@H](/C(C)=C/[C@@H]3CC[C@@H](O)[C@H](OC)C3)[C@H](C)[C@@H](O)CC1=O)[C@H](C)C[C@@H]2OC`
Solution: 0.87

Exercise: State the recorded growth inhibition by drug plus 177Lu-lilotomab satetraxetan for this entry: `O=C(O)Cc1cccc(OCCCN(Cc2cccc(C(F)(F)F)c2Cl)CC(c2ccccc2)c2ccccc2)c1`
Solution: 0.86

Exercise: State the recorded growth inhibition by drug plus 177Lu-lilotomab satetraxetan for this entry: `Nc1nc(Cl)nc2c1ncn2[C@H]1C[C@H](O)[C@@H](CO)O1`
Solution: 0.683

====

Tested on: U-2932
Test: growth inhibition by drug plus 177Lu-lilotomab satetraxetan (1 - RLU/untreated control) (fraction); higher = stronger inhibition
Settings: 10 nM; time (day): 5; 177Lu-lilotomab satetraxetan 1 ug/ml
Everything with growth inhibition by drug plus 177Lu-lilotomab satetraxetan lower than 0.1 is rule not met; everything else, including exactly 0.1, is rule met.

1) COc1ccc(CNC(=O)Nc2ncc([N+](=O)[O-])s2)cc1    rule not met

Exercise: Reported growth inhibition by drug plus 177Lu-lilotomab satetraxetan reaches at least 0.1 for `Cc1ccc(-n2nc(C(C)(C)C)cc2NC(=O)Nc2ccc(OCCN3CCOCC3)c3ccccc23)cc1` ?
Solution: rule met
